Assay Protocol: Phase I pharmacokinetics after single IV bolus
Type: in vivo
Run Conditions: both sexes, human, plasma, iv, 0.04 mg/kg, single IV bolus 0.04 mg/kg (n = 6), read-out: CL (clearance), Mean (SD)
Readout Type: clearance (mL/min)
Enter your answer as a number in mL/min; do not include the unit.

stdin: State the recorded clearance for this entry: COc1ccc(C[C@@H]2c3cc(OC)c(OC)cc3CC[N@@+]2(C)CCCOC(=O)/C=C/C(=O)OCCC[N@+]2(C)CCc3cc(OC)c(OC)cc3[C@H]2Cc2ccc(OC)c(OC)c2)cc1OC.[Cl-].[Cl-]
stdout: 400

* * *

Assay Protocol: Phase I pharmacokinetics after single IV bolus
Assay type: in vivo
Run Conditions: both sexes, human, plasma, iv, 0.1 mg/kg, single IV bolus 0.10 mg/kg (n = 6), read-out: Vss (volume at steady state), Mean
Readout Type: Vd (L)
Write the number in L without appending the unit.

stdin: What value of Vd has been recorded for this entry: COc1ccc(C[C@@H]2c3cc(OC)c(OC)cc3CC[N@@+]2(C)CCCOC(=O)/C=C/C(=O)OCCC[N@+]2(C)CCc3cc(OC)c(OC)cc3[C@H]2Cc2ccc(OC)c(OC)c2)cc1OC.[Cl-].[Cl-]
stdout: 9.12

* * *

Assay Protocol: Phase I pharmacokinetics after single IV bolus
Assay type: in vivo
Run Conditions: both sexes, human, plasma, iv, 0.14 mg/kg, single IV bolus 0.14 mg/kg (n = 4), read-out: AUClast, Mean (converted)
Readout Type: AUC(0-t) (ng·h/mL)
Quick note: give the figure in ng·h/mL, leave out the unit.

stdin: Please report the recorded AUC(0-t) for COc1ccc(C[C@@H]2c3cc(OC)c(OC)cc3CC[N@@+]2(C)CCCOC(=O)/C=C/C(=O)OCCC[N@+]2(C)CCc3cc(OC)c(OC)cc3[C@H]2Cc2ccc(OC)c(OC)c2)cc1OC.[Cl-].[Cl-] .
stdout: 481

* * *

Assay Protocol: Phase I pharmacokinetics after single IV bolus
Format: in vivo
Run Conditions: both sexes, human, plasma, iv, 0.08 mg/kg, single IV bolus 0.08 mg/kg (n = 6), read-out: AUClast, Geometric Mean (converted)
Readout Type: AUC(0-t)

stdin: Given the entry COc1ccc(C[C@@H]2c3cc(OC)c(OC)cc3CC[N@@+]2(C)CCCOC(=O)/C=C/C(=O)OCCC[N@+]2(C)CCc3cc(OC)c(OC)cc3[C@H]2Cc2ccc(OC)c(OC)c2)cc1OC.[Cl-].[Cl-] , report its measured AUC(0-t).
stdout: 248 ng·h/mL

* * *

Assay Protocol: Phase I pharmacokinetics after single IV bolus
Type: in vivo
Run Conditions: both sexes, human, plasma, iv, 0.06 mg/kg, single IV bolus 0.06 mg/kg (n = 6), read-out: Cmax, Mean
Readout Type: Cmax (ng/mL)
Write it as a number; the unit ng/mL goes unstated.

stdin: Fill in: Cmax of COc1ccc(C[C@@H]2c3cc(OC)c(OC)cc3CC[N@@+]2(C)CCCOC(=O)/C=C/C(=O)OCCC[N@+]2(C)CCc3cc(OC)c(OC)cc3[C@H]2Cc2ccc(OC)c(OC)c2)cc1OC.[Cl-].[Cl-] is ___
stdout: 3070

The values you see were collected from patent US20230381192A1.
